Reference source: patent US20110286916A1

TEST_TARGET: T1, human full-length Notch1 with C-terminal FLAG tag, stably expressed on 293 FlpIn (TREx) cells (human, UniProt P46531 19-2555)
T1 construct: tetracycline/doxycycline-induced expression from pcDNA5/FRT/TO-HN1+FLAG; also called hN1; 293_N1
EXPERIMENT_DESCRIPTION: FACS, phage scFv
PROPERTY_LABEL: binding result

INSERT INTO results (binder, recorded_measurement) VALUES
  ('hN1S3-091 (scFv, V domains shown, phage scFv) VH: EVQLVQSGAEVKKPGASVKVSCKASGYNFTGYYMHWVRQAPGQGLEWMGWINPNSGGTNYAQKFQGRVTMTRDTSISTAYMELSRLRSDDTAVYYCATDSFDYWGQGTMVTVSS VL: QSVLTQPPSATGTPGQTVSISCSGGNSNIGSNYVSWYQQLPGTAPKLLIYSNNQRPSGVPDRFSGSKSGTSASLAISGLQSEDEADYYCAAWDDSLNGHIFGTGTKLTVL', 'binds'),
  ('N1wc48 (scFv, V domains shown, phage scFv) VH: QVQLVQSGAEVKKPGATVKISCKVSGYTFTDYYIHWVQQAPGKGLEWMGLVDPEDGETIYAEKFQGRVTIIADTSTDTAYMELSSLRSEDTAVYYCATGPFRLDSWGQGTMVTVSS VL: QSVLTQPPSVSGAPGQRVTISCTGSSSNIGAGYDVHWYQQLPGSAPKLLIYGNNNRPSGVPDRFSGSKSGTSASLAITGLQAEDEADYYCQSFDNRLSDFNVFGTGTKVTVL', 'binds'),
  ('N1wc177 (scFv, V domains shown, phage scFv) VH: QVQLVQSGAEVKEPGSSVRVSCKSSGGTFSNYAISWVRQAPGQGLEWMGGIIPGFGKTNYAQKFQGRVTITADASTSTTYMELRTLRSGDTAVYYCARDRGPDIGVAHFDSWGKGTMVTVSS VL: QAVLTQPSSASGTPGQRVIISCSGSSSNIGKYIVNWYQQLPGAAPKLLIYTYNERPSGVPARFSGSTSGTSASLAITGLQSEDEADYYCASWDDSLNVVVFGGGTKLTVL', 'binds');
